The measurements presented in this section are drawn from patent US10112937B2.

Below: a set of entries, each annotated with reported PBMC 10 μM (% control).
Target: human P2X7 (Homo sapiens (Human))
Experiment: P2X7 antagonism in human PBMCs (IL-1β release after LPS + Bz-ATP, ELISA)
Format: cell-based
Details: human PBMCs, test compound 10 μM
Quantity Name: PBMC 10 μM (% control)

[[record]]
compound = "Cc1c(C(=O)N2CCc3c(nnn3-c3ncccn3)C2)cccc1C(F)(F)F"
uom = "% control"
measured_number = "−1.9"

[[record]]
compound = "Cc1cc(-n2nnc3c2CCN(C(=O)c2ccc(Cl)c(C(F)(F)F)c2)[C@H]3C)ncc1F (single isomer, unassigned)"
uom = "% control"
measured_number = 2.0

[[record]]
compound = "CCOc1cccnc1-n1nnc2c1CCN(C(=O)c1cccc(C(F)(F)F)c1Cl)[C@@H]2C (single isomer, unassigned)"
uom = "% control"
measured_number = "−9.6"

[[record]]
compound = "O=C(c1cccc(C(F)(F)F)c1Cl)N1CCc2c(-c3cccnc3)n[nH]c2C1"
uom = "% control"
measured_number = 3.6


====

Measured PBMC 10 μM (% control) accompanies every entry in the list below.
Target: human P2X7 (Homo sapiens (Human), UniProt Q99572)
Sequence (Q99572 whole entry): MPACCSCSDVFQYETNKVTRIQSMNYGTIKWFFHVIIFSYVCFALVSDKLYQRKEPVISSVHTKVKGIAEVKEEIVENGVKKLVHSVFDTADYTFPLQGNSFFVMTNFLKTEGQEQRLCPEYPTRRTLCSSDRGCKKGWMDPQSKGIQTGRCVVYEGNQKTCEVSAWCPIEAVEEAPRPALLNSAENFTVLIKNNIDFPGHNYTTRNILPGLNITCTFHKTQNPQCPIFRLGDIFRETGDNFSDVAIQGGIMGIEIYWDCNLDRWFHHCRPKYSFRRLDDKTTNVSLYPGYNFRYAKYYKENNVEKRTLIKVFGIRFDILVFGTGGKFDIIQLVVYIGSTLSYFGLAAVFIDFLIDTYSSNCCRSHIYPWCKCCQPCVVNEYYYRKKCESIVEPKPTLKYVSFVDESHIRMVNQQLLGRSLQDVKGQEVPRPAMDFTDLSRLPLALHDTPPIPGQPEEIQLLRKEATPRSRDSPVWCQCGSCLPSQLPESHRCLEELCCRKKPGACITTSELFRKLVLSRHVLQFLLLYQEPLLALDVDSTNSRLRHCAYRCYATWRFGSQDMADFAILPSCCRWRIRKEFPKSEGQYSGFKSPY
Assay: P2X7 antagonism in human PBMCs (IL-1β release after LPS + Bz-ATP, ELISA)
Assay type: cell-based
Settings: human PBMCs, test compound 10 μM
Quantity Name: PBMC 10 μM (% control)

[[record]]
compound = "CC1CN(C(=O)c2cccc(C(F)(F)F)c2Cl)C(C)c2nnn(-c3ccc(F)cc3)c21 (stereo not drawn)"
measured_number = "−4.1"

[[record]]
compound = "C[C@@H]1Cc2c(nnn2-c2ccc(F)cc2)[C@H](C)N1C(=O)c1cccc(C(F)(F)F)c1Cl"
measured_number = 5.8

[[record]]
compound = "Cc1c(C(=O)N2Cc3nnn(-c4ncc(F)cn4)c3CC2C)cccc1C(F)(F)F (stereo not drawn)"
measured_number = "−1.0"

[[record]]
compound = "C[C@@H]1c2nnn(-c3cc[nH]n3)c2CCN1C(=O)c1cccc(C(F)(F)F)c1Cl (single isomer, unassigned)"
measured_number = "−0.2"

[[record]]
compound = "CC1Cc2c(nnn2-c2ccccn2)CN1C(=O)c1cccc(Cl)c1Cl (stereo not drawn)"
measured_number = "−3.8"

[[record]]
compound = "CC1c2nnn(-c3cncnc3)c2C=CN1C(=O)c1cccc(C(F)(F)F)c1Cl (stereo not drawn)"
measured_number = 9.3

[[record]]
compound = "Cc1cc(-n2nnc3c2CCN(C(=O)c2cc(Cl)cc(C(F)(F)F)c2)[C@H]3C)ncc1F (single isomer, unassigned)"
measured_number = 63.9

[[record]]
compound = "Cc1c(C(=O)N2CCc3c(nnn3-c3ncccn3)[C@H]2C)cccc1C(F)(F)F (single isomer, unassigned)"
measured_number = "−0.7"

[[record]]
compound = "Cc1ccnc(-n2nnc3c2CCN(C(=O)c2cccc(Cl)c2C)C3C)c1 (stereo not drawn)"
measured_number = "−18.8"

[[record]]
compound = "Cc1ccnc(-n2nnc3c2CCN(C(=O)c2cccc(C(F)(F)F)c2Cl)[C@@H]3C)n1 (single isomer, unassigned)"
measured_number = "−3.7"

[[record]]
compound = "C[C@H]1Cc2c(nnn2-c2ncccc2F)CN1C(=O)c1cccc(C(F)(F)F)c1Cl (single isomer, unassigned)"
measured_number = "−4.2"

[[record]]
compound = "COc1cccnc1-n1nnc2c1CCN(C(=O)c1cccc(C(F)(F)F)c1Cl)C2C (stereo not drawn)"
measured_number = 1.4

[[record]]
compound = "Cc1ccc(-n2nnc3c2CCN(C(=O)c2cccc(C(F)(F)F)c2Cl)[C@@H]3C)nc1 (single isomer, unassigned)"
measured_number = "−5.5"

[[record]]
compound = "O=C(c1ccc(F)cc1Cl)N1CCc2c(nnn2-c2ccccn2)C1"
measured_number = 4.3

[[record]]
compound = "CC1Cc2c(nnn2-c2ncc(F)cn2)CN1C(=O)c1ccc(F)c(Cl)c1Cl (stereo not drawn)"
measured_number = 0.3

